Target: Recombinant human Plk-1 (Homo sapiens, UniProt P53350)
Construct: 6xHis; made in house; host or cells: baculovirus-infected Hi5 insect cells
Sequence (P53350 whole entry): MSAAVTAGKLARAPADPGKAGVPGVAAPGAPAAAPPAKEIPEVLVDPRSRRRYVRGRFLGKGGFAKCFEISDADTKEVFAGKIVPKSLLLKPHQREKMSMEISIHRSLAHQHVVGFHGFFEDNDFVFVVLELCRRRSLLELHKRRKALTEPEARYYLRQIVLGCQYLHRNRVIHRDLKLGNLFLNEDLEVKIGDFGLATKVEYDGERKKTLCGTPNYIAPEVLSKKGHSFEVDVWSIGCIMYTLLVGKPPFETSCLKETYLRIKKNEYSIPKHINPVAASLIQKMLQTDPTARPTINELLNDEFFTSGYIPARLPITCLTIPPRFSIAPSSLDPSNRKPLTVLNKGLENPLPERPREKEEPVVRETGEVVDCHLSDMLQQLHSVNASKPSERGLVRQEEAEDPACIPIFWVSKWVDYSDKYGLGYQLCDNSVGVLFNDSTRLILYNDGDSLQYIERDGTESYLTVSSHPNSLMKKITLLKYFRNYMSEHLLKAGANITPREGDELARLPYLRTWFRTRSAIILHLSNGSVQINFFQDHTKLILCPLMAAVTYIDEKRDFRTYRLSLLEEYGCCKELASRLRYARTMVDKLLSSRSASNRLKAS
Test: PLK Enzyme Assay
Format: biochemical
Details: biotinylated casein and 33P-γ-ATP as substrate, 90 minutes at room temperature, read-out: PLK-1 IC50 [nM] Inhibition
recorded_endpoint: IC50 (nM)

Worked cases, answers included:
CCNc1cc(NC=c2sc(=C(C#N)C3=N[C@H]4CCC[C@H]4O3)n(CC)c2=O)ccn1 (mixture of isomers) [Example 38]: 24
CCn1c(=C(C#N)C2=NC(C)(C)CO2)sc(=CNc2cccc(NC(=O)COCCOC)n2)c1=O (mixture of isomers) [Example 37]: 69
CCn1c(=C(C#N)C2=N[C@H]3CCC[C@H]3O2)sc(=CNc2cccc(NC(=O)C(C)(C)O)c2)c1=O (mixture of isomers) [Example 31]: 53

P: CCn1c(=C(C#N)C2=NCC(C)O2)sc(=CNc2cccc(NC(=O)C(C)(C)C)c2)c1=O (mixture of isomers) [Example 15]
Q: CCn1c(=C(C#N)C2=N[C@@H](C)CO2)sc(=CNc2cccc(NC(=O)C(C)(C)C)c2)c1=O [Example 20]
I would appreciate it if you could say which entry, P or Q , has the lower IC50 value. Use the label to indicate which entry you chose. P
(P: 55 nM, Q: 140 nM)
